Test target: T1, Human CD19-his protein (human, UniProt P15391 20-291)
T1 construct: bought protein; also called recombinant human CD19-His; CD19 full-length protein; not shown: His tag
T1 sequence (looked up): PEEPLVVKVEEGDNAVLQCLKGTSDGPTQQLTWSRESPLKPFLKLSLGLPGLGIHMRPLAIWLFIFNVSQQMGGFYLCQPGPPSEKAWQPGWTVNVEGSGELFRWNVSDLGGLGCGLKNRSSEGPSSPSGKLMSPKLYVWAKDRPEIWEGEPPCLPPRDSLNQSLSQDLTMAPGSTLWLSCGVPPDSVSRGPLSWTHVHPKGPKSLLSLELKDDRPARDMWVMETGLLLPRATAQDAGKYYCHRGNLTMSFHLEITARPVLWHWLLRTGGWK
Experiment notes: SPR Biacore, Ab captured on Protein A, CD19-His analyte
pKd: −log10 of the molar value.
Decision: pKd compared against 9; not below it gives Y, below it gives N.

[
  {
    "Binder": "F4.18.13 (antibody, human IgG1, V domains shown, human-murine chimeric antibody, human IgG1 constant) VH: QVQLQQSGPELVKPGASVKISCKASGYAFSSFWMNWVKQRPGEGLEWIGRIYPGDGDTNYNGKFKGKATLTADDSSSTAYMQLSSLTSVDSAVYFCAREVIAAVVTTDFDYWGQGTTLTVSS VL: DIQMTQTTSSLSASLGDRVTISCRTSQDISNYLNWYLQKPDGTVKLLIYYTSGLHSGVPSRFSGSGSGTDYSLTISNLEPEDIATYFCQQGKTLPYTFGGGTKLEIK",
    "Label value": "Y"
  },
  {
    "Binder": "F4.22.6 (antibody, human IgG1, V domains shown, human-murine chimeric antibody, human IgG1 constant) VH: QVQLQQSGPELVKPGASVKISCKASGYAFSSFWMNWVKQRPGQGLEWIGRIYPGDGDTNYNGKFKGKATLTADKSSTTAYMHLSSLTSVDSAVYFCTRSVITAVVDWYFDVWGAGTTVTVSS VL: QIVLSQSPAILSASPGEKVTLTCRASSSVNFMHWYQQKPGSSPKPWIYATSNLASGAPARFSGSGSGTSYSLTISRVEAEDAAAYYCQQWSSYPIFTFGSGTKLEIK",
    "Label value": "N"
  },
  {
    "Binder": "F3.13.2 (antibody, human IgG1, V domains shown, human-murine chimeric antibody, human IgG1 constant) VH: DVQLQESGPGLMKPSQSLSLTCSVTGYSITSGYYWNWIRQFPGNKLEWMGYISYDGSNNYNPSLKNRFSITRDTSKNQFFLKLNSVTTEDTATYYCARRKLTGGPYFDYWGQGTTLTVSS VL: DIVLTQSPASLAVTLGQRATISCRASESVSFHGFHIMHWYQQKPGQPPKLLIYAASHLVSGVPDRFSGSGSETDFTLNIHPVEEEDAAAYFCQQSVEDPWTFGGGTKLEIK",
    "Label value": "N"
  },
  {
    "Binder": "F3.23.10 (antibody, human IgG1, V domains shown, human-murine chimeric antibody, human IgG1 constant) VH: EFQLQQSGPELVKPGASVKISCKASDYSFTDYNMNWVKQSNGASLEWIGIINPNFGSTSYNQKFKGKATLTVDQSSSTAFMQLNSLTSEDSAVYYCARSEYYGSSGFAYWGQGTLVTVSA VL: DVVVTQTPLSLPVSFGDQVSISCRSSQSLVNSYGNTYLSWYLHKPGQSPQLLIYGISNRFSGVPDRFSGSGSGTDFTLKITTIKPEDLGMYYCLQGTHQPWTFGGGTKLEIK",
    "Label value": "N"
  },
  {
    "Binder": "F3.83.9 (antibody, human IgG1, V domains shown, human-murine chimeric antibody, human IgG1 constant) VH: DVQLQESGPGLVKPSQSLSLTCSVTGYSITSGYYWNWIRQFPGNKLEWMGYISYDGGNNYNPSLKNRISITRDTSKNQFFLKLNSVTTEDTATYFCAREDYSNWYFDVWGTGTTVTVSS VL: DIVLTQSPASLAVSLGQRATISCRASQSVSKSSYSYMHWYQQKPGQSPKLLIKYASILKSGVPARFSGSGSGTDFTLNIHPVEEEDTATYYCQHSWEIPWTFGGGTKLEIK",
    "Label value": "N"
  },
  {
    "Binder": "F4.191.1 (antibody, human IgG1, V domains shown, human-murine chimeric antibody, human IgG1 constant) VH: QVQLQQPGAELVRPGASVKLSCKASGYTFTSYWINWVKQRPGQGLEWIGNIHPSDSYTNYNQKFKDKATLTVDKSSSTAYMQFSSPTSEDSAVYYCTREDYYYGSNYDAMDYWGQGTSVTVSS VL: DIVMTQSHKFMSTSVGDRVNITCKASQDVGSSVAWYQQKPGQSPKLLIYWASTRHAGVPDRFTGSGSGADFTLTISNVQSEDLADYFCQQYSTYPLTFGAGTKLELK",
    "Label value": "N"
  }
]

Origin of measurements: patent US20250042994A1
